System: TO-N3-2 (biotin conjugate)
Assay: pull-down binding Z-score (relative to library population); higher = stronger binding
Details: RNA library: Library-2
pull-down binding Z-score values, listed per item

> print(dat)
                             record.sequence          measured.property  assay.result
 1   GGAGGCACUGCCAGGGCUGCCCAC [hsa-mir-1202]  pull-down binding Z-score          2.09
 2   GUGAGUUAGAAAAGCUCAAUUCAC [hsa-mir-4457]  pull-down binding Z-score        -0.405
 3  ACCAACCACCACAAACCUCUAUCACCUCAGCUGUUUUGCAGAGUGGUUUUAGAAAAAUGGCAUUCCCAUCUGGU  pull-down binding Z-score         0.456
 4            GGCAUCCCCAUUGCU [hsa-mir-4304]  pull-down binding Z-score         0.191
 5        UUGUCGUUAAAAAUAGCAA [hsa-mir-548n]  pull-down binding Z-score        -0.863
 6       GUGUAUGGGCUGAGCCUUGC [hsa-mir-6805]  pull-down binding Z-score         0.868
 7        GCGCUGCCAGAAACUGGCAAGCGC [bulge-A]  pull-down binding Z-score         -1.12
 8  UCUGCAGGUUCGCACUGAUGCCUGCUCG [hsa-mir-6726]  pull-down binding Z-score         0.569
 9    GCAUCCAGACAGCGGGCGAAUGC [hsa-mir-6836]  pull-down binding Z-score          1.13
10  CGAGGUGGGCUAGGCUCGGGCCCGUGGCG [hsa-mir-3656]  pull-down binding Z-score           2.8

## Input Consider the sequence UUUUGCCAUUAAAAGUAAUGACAAAA [hsa-mir-548f-4] and give its measured pull-down binding Z-score.
## Output -1.66

## Input Consider the sequence GGCGCUUCUCCUUCUGAACAGAGCGCU [hsa-mir-1251] and give its measured pull-down binding Z-score.
## Output -0.171

## Input Consider the sequence AUCUAUUCCAGAAGAU [hsa-mir-4696] and give its measured pull-down binding Z-score.
## Output -1.35

* * *

Tested on: TO-N3-2 (biotin conjugate)
Assay: pull-down binding Z-score (relative to library population); higher = stronger binding
Details: RNA library: Library-2
MEASURED PROPERTY: pull-down binding Z-score
Just the number, please, no unit after it.

# annotated cases, reported pull-down binding Z-score shown
> print(dat)
                            record.sequence          measured.property  assay.result
1  UAGCUGGUUUUGCUA [SHAPE_invivo_SARS-CoV-2_Motif_257]  pull-down binding Z-score        -0.612
2  UCACAAUUGCGCUACAGAACUGUUGA [hsa-mir-203b]  pull-down binding Z-score         0.308

## Input Consider the sequence GUUUACAACAGUAGAC and give its measured pull-down binding Z-score.
## Output -1.28

* * *

Test system: TO-3-N3-2 (biotin conjugate)
Experiment: pull-down binding Z-score (relative to library population); higher = stronger binding
Settings: RNA library: Library-2
pull-down binding Z-score values, listed per item
Just the number, please, no unit after it.

# annotated cases, reported pull-down binding Z-score shown
> print(dat)
                            record.sequence          measured.property  assay.result
1                  GGGGCUCUU [hsa-mir-4634]  pull-down binding Z-score        0.0655
2    AGAUCCCCUGUUAGAGACGGGCC [hsa-mir-6840]  pull-down binding Z-score         0.351
3  ACGUCCAGUGGUGCAGAGGUAAUGGACGU [hsa-mir-1306]  pull-down binding Z-score         0.227
4    GCGCUGCCAGAAACUGGCUUCAGCGC [bulge-UUC]  pull-down binding Z-score        -0.243

Continue with the next sequence.
## Input Consider the sequence GGCUGGGCAGGCGGAAAGAGGUCUGAACUGCCUCUGCC [hsa-mir-6791] and give its measured pull-down binding Z-score.
## Output -0.0685

* * *

pull-down binding Z-score values, listed per item
Tested on: TO-N3 (biotin conjugate)
Experiment: pull-down binding Z-score (relative to library population); higher = stronger binding
Settings: RNA library: Library-2
Just the number, please, no unit after it.

# annotated cases, reported pull-down binding Z-score shown
> print(dat)
                            record.sequence       experimental.system  assay.result
1            ACAUCAGCUUGUGUUUUGGCUGCUGAAUGU  TO-N3 (biotin conjugate)        -0.774
2  AGGGCAAGUCCAAAGGUAUACAGUUGGUCUGUUCA [hsa-mir-7107]  TO-N3 (biotin conjugate)        -0.107
3          CUCACCAUAGUGGUGGA [hsa-mir-1288]  TO-N3 (biotin conjugate)        -0.412
4               CGCAGGGAAUGGAUAAUCUUGCCUGCG  TO-N3 (biotin conjugate)        -0.607

Continue with the next sequence.
## Input Consider the sequence GGCGUAAGUCUGAUACUUACCUG [U1snRNP5ss-10] and give its measured pull-down binding Z-score.
## Output 0.668

* * *

Tested on: TO-3-N3 (biotin conjugate)
Assay: pull-down binding Z-score (relative to library population); higher = stronger binding
Details: RNA library: Library-2
MEASURED PROPERTY: pull-down binding Z-score
Just the number, please, no unit after it.

# annotated cases, reported pull-down binding Z-score shown
RECORD SEQUENCE	pull-down binding Z-score
AACUUCUUAAGAGUGCUUAUGAAAAUUUUAAUCAGCACGAAGUU	0.425
AAGCUCUUGCAGUAGGUUU [hsa-mir-1206]	-0.604
CAAACCGGACCUGAGCGUUUUG [hsa-mir-375]	1.14
GAUGUUCUUGUUAACAACUAAACGAACAAUGUUUGUUUUUCUUGUUUUAUUGCCACUAGUCUCUAGUCAGUGUGUUAAUCUUACAACCAGAACUC [DMSMaPseq_invitro_SARS-CoV-2_Multi_63_ComplexLevel_1]	0.637
CAUCCCGGACGGCCUGUGAGGGAUG [hsa-mir-4787]	0.8

Continue with the next sequence.
## Input Consider the sequence GCGCUUCAGCGUUCUUCGGAAUGUCGCGC and give its measured pull-down binding Z-score.
## Output -0.429

* * *

Test system: TO-3-N3 (biotin conjugate)
Experiment: pull-down binding Z-score (relative to library population); higher = stronger binding
Conditions: RNA library: Library-2
Classify by measured pull-down binding Z-score: Met if it is equal to or exceeds -0.3, Not met if it is smaller.

Study these solved cases before continuing.
RECORD SEQUENCE	EXPERIMENTAL SYSTEM	CLASS ASSIGNMENT
AUAUUGACACUAUAACAAUAAUGUCAAUAU [hsa-mir-4795]	TO-3-N3 (biotin conjugate)	Not met
GCAAAUUAAUGC	TO-3-N3 (biotin conjugate)	Not met
CUGGGUUCGGCUGCUACCCCAAA [hsa-mir-6768]	TO-3-N3 (biotin conjugate)	Met
GGCUCAUAGACUUCCUUAAGGAUGUAAUGGAGUC [IAV_invivo_PB1_2_Motif_10+IAV_invivo_PB1_2_Motif_10]	TO-3-N3 (biotin conjugate)	Met
AGCUGUGAAAGUCCUAGCU [hsa-mir-1256]	TO-3-N3 (biotin conjugate)	Met
CUGUUCAGGAGGCUCUCAAUGUGUACA [hsa-mir-199a-1]	TO-3-N3 (biotin conjugate)	Met
CUUGCUUUGAAACUAAAGAAGUAAG [hsa-mir-302a]	TO-3-N3 (biotin conjugate)	Met
AAGUUUGUUCGCAUUCAACCAGGACAGACUU [DMSMaPseq_invitro_SARS-CoV-2_Motif_187]	TO-3-N3 (biotin conjugate)	Met
UCUGUUUGGAACUUUAAUUUUAGCCAUGGCAGA	TO-3-N3 (biotin conjugate)	Not met
GAGCUGGAAGGAGUGGGCCUGGCUC [hsa-mir-6847]	TO-3-N3 (biotin conjugate)	Met

## Input Is pull-down binding Z-score for GGCUGCGUGCCACCCGGGCAGCU [hsa-mir-3194] at or above -0.3?
## Output Not met

## Input Is pull-down binding Z-score for CCAUUCUUCGUAAGGGUGG [DMSMaPseq_invitro_SARS-CoV-2_Motif_28] at or above -0.3?
## Output Met

## Input Is pull-down binding Z-score for UUAAUGCCUGUCUGUGUGGAAACUAAAGCCAUAGUUUCAACUAUACAGCGUAAAUAUAAGGGUAUUAA [DMSMaPseq_invitro_SARS-CoV-2_Motif_83] at or above -0.3?
## Output Met

## Input Is pull-down binding Z-score for GCUGCUGGUGCUCAUCUCAGC [hsa-mir-6877] at or above -0.3?
## Output Met

## Input Is pull-down binding Z-score for UUUAGUAUGCCACAUUUCUAAA [hsa-mir-4282] at or above -0.3?
## Output Not met
